Test system: TK-10 renal
experiment.description: NCI-60 one-dose screen, 48 h
setup.conditions: 10 µM unless noted
Compounds without any hit were thinned out: in the full panel of roughly 83,000, 20% have a hit. Calls of active or inactive are those of the source. Rule for the calls: active = growth percent below 10; inactive = the rest.
Classes used: y for active, n for inactive

INSERT INTO results (molecule, category_label) VALUES
  ('COc1cccc(-c2nn(-c3ccccc3)cc2-c2ccnc(NCCCNC(=O)Nc3ccc(Cl)c(Cl)c3)c2)c1', 'n'),
  ('COc1cc(/C=C/C(=O)c2c(C)nc3ccccc3c2C)ccc1OCCCN1CCN(C(=O)c2ccco2)CC1', 'n'),
  ('Cc1cc(=O)[nH]c(N=Nc2c(O)[nH]c3ccccc23)n1', 'n'),
  ('CNC(=O)NCC1OC(n2cnc3c(NC(=O)Nc4ccccc4)ncnc32)C(O[Si](C)(C)C(C)(C)C)C1CC(=O)N(C)OC (centres undefined)', 'y'),
  ('O=[N+]([O-])c1ccc(C2CC(c3ccccc3)=Nc3ccccc3S2)cc1 (centres undefined)', 'n'),
  ('NC(=O)c1ccc[n+](Cc2ccc(Cl)cc2Cl)c1', 'n'),
  ('C=CCSc1nc2ccccc2cc1/C=N/O', 'n'),
  ('CCc1c2c(nc3ccc(OC(=O)NCc4ccc(B5OC(C)(C)C(C)(C)O5)cc4)cc13)-c1cc3c(c(=O)n1C2)COC(=O)[C@]3(O)CC', 'y'),
  ('N=c1sc(Cc2ccc(Cl)cc2)cn1CC(=O)c1ccc(F)cc1', 'n');

---

The following compounds are shown together with reported growth values.
Test system: SNB-75 CNS
experiment.description: NCI-60 one-dose screen, 48 h (100 = growth as untreated, 0 = no growth, -100 = all killed)
setup.conditions: 10 µM unless noted
The panel holds about 83,000 compounds, 20% with a hit somewhere; the sample as a whole holds those more often.
recorded.metric: growth (%)

INSERT INTO results (compound, unit_string, value_observed) VALUES
  ('COc1ccc(/C=C/c2c(C(=O)/C=C/c3ccc(F)cc3)c(C)nc3ccccc23)cc1', '%', 52.1),
  ('CC(=O)n1c(-c2ccc(Cl)cc2)nc2c(c1=O)C(c1ccc(Cl)cc1)c1sc3c(Cl)cccc3c1O2 (stereo not drawn)', '%', -22),
  ('CC1OC(O[C@H]2/C=C/C=C/C=C/C=C/C=C/C=C/C=C/[C@H](C)[C@@H](O)[C@@H](C)[C@H](C)OC(=O)CC(O)CC(O)CCC(O)C(O)CC(O)C[C@]3(O)C[C@H](O)C(C(=O)O)C(C2)O3)C(O)[C@H](N)C1O (stereo partly drawn)', '%', 57.8);

---

System: MDA-MB-435 melanoma
experiment.description: NCI-60 one-dose screen, 48 h (100 = growth as untreated, 0 = no growth, -100 = all killed)
setup.conditions: 10 µM unless noted
About 83,000 compounds went through this panel and 20% of them were active in at least one assay; those are over-represented in the sample as a whole.
recorded.metric: growth (%)

INSERT INTO results (molecule, unit_string, value_observed) VALUES
  ('N#CC1=C(NC=O)Oc2c(ccc3ccccc23)C1c1ccccc1 (stereo not given)', '%', -33),
  ('N=C1C(c2nc(-c3ccc(Br)cc3)cs2)=C(O)CN1CC1CCCO1 (stereo not given)', '%', 88.8),
  ('O=c1c2cc(F)ccc2sc2c(NCCCN3CCCC3)nc3ccccc3c12', '%', 20.6),
  ('N#CC1=C(c2ccc(Br)cc2)NC(SCC(=O)c2ccc(Br)cc2)NC1=O (stereo not given)', '%', 103),
  ('Oc1c(CN2CCCC2)cc(COCc2ccc(Br)cc2)c2cccnc12', '%', 24.1),
  ('c1ccc2cc3nc4cc5ccccc5cc4nc3cc2c1', '%', 119),
  ('CNS(=O)(=O)c1n[nH]nc1-c1cc(C(C)(C)C)c(O)c(C(C)(C)C)c1', '%', 106),
  ('CCOc1ccccc1-n1c(CN2CCN(C(=O)COc3ccc(CNCCCCCCN4C5CCCC4CC(OC(=O)Nc4cc(C)ccc4OC)C5)cc3)CC2)nc2ccccc2c1=O (stereo not given)', '%', -97),
  ('CCN(CC)CCCC(C)Nc1c2ccc(Cl)cc2nc2ccc(O)cc12 (stereo not given)', '%', 27),
  ('COc1cccc(C(=O)NCCCNc2cc(-c3cn(-c4ccccc4)nc3-c3cccc(OC)c3)ccn2)c1', '%', 40.2),
  ('COc1ccc(NC(=O)CSc2nc(C)c(C(C)=O)n2-c2ccc([N+](=O)[O-])cc2)cc1', '%', 93.2),
  ('Nc1nc(N)c2c(n1)NC(c1ccccc1)C1CCc3ccccc3C1=N2 (stereo not given)', '%', 28.4),
  ('O=C1C=C[C@]2(C[C@@H](c3cccc(C(F)(F)F)c3)O[C@@H](c3cccc(C(F)(F)F)c3)O2)O1', '%', -74.7),
  ('Cc1nn(-c2ccccc2)c2nc3c(c(-c4ccc(Cl)cc4)c12)CNC1(CCSCC1)N3', '%', 99.8),
  ('COc1ccc2c(c1)O/C(=C\c1cccc(OCC(=O)Nc3nc4ccccc4s3)c1)C2=O', '%', 96.5),
  ('CN1C(=O)N(C)C2C1NN=c1s/c(=C\c3ccccc3)c(=O)n12 (stereo not given)', '%', -26.1),
  ('CC(C)(C)n1cc(-c2ccnc(NCCCNS(=O)(=O)c3ccccc3)c2)c(-c2ccccc2)n1', '%', 82.1),
  ('COc1cccc(-c2nn(-c3ccccc3)cc2-c2ccnc(NCCCNC(=O)c3ccccc3)c2)c1', '%', 5.43),
  ('O=[N+]([O-])c1ccc(OCCO)cc1', '%', 105),
  ('O=C(/C=C/c1ccc(Cl)nc1)c1ccc(Cl)cc1Cl', '%', 89.9);

---

The following compounds are shown together with reported growth values.
System: A498 renal
experiment.description: NCI-60 one-dose screen, 48 h (100 = growth as untreated, 0 = no growth, -100 = all killed)
setup.conditions: 10 µM unless noted
Experimental: Growth inhibition of the A498 human tumor cell line is measured as a screen for anti-cancer activity. Cells are grown in 96 well plates and exposed to the test compound for 48 hours. Compounds are tested at a single concentration, which is 10^-5 M for most compounds. The reported endpoint is percent growth (GI% or GIPRCNT), where numbers from 0 - 100% represent growth inhibition, and numbers from -100% - 0 represent cell death. For example, a value of 40 represents 60% growth inhibition. […]
About 83,000 compounds went through this panel and 20% of them were active in at least one assay; those are over-represented in the sample as a whole.
recorded.metric: growth (%)

INSERT INTO measurements (compound, recorded_metric, value_observed) VALUES
  ('C=C(C)[C@@H]1CC[C@]2(C(=O)NC3CCCCC3)CC[C@]3(C)[C@H](CC[C@@H]4[C@@]5(C)CCCNC(C)(C)[C@@H]5CC[C@]43C)[C@@H]12', 'growth', 68.7),
  ('CCc1ccccc1NC(=O)/C(C#N)=C/c1ccc(OC)cc1', 'growth', 100),
  ('O=C1CC(N2C(=O)/C(=C/C(Cl)=C\c3ccc([N+](=O)[O-])cc3)SC2=S)C(=O)N1c1ccc(O)cc1 (stereo not drawn)', 'growth', -26.8),
  ('Cc1ccc2c(c1)Sc1c(ccc3ccccc13)N2', 'growth', 91.7),
  ('CCc1c2c(nc3ccc(OC(=O)NCc4ccc(B5OC(C)(C)C(C)(C)O5)cc4)cc13)-c1cc3c(c(=O)n1C2)COC(=O)[C@]3(O)CC', 'growth', -63.1),
  ('O=C(NCCCNc1cc(-c2cn(-c3ccccc3)nc2-c2cccc(O)c2)ccn1)c1ccccc1', 'growth', 31.1),
  ('COc1ccccc1NC(=O)N/C(N)=N/c1nc2ccccc2s1', 'growth', -10.5),
  ('COC(=O)[C@]12CC[C@@H](C)[C@H](C)[C@@H]1C1=CC[C@@H]3[C@@]4(C)C(C=O)=C[C@@](C)(COC(C)=O)[C@@H]4C(=O)C[C@@]3(C)[C@]1(C)CC2', 'growth', 60.5);

---

System: UACC-257 melanoma
experiment.description: NCI-60 one-dose screen, 48 h (100 = growth as untreated, 0 = no growth, -100 = all killed)
setup.conditions: 10 µM unless noted
The panel holds about 83,000 compounds, 20% with a hit somewhere; the sample as a whole holds those more often.
recorded.metric: growth (%)

INSERT INTO results (molecule, value_observed) VALUES
  ('COc1ccc2c(c1)O/C(=C\c1cccc(OCC(=O)Nc3nc(C)c(C)s3)c1)C2=O', 88.5),
  ('C=C(C)[C@@H]1CC[C@]2(C)[C@H](CC=C3[C@@H]4CC(C)(C)CC[C@]4(C(N)=O)CC[C@]32C)[C@@]1(C)CCC#N', 17.5),
  ('CC(=O)c1ccc(NCC(=O)Nc2ccccn2)cc1', 106),
  ('CC(=O)OC[C@H]1OC(Sc2sc(C(=O)c3ccc(Br)cc3)c(N)c2-c2nc3ccccc3s2)[C@H](OC(C)=O)[C@@H](OC(C)=O)[C@@H]1OC(C)=O (stereo not given in full)', 80.1),
  ('COc1ccc2nc(NNC(=O)c3cnccn3)c3cccn3c2c1', -8.01),
  ('O=c1c2cc(F)ccc2sc2c(NCCN3CCCCC3)nc3ccccc3c12', 65.1),
  ('COc1ccccc1CNCCCN1C(=O)c2ccc3c4c(ccc(c24)C1=O)C(=O)N(CCCNCCCCN)C3=O', -71.8),
  ('Cc1cccc(Cc2cnc(NC(=O)/C=C/c3ccco3)s2)c1', 41.3),
  ('COc1ccc2[nH]c(O)c(C(=Nc3ccc(N(C)C(=O)CN4CCN(C)CC4)cc3)c3ccccc3)c2c1', 65.9),
  ('COc1ccc(-c2nc3c(N)c(CO)c(C)nc3o2)cc1', 101),
  ('CCN(CC)CCn1nc2c3c(cccc3c1=O)-c1ccccc1-2', 2.85),
  ('O=S(=O)(Nc1cccc(Cl)c1)c1ccc(-c2cnc(C3CC3)o2)cc1', 63.8),
  ('Cc1cc(NCc2cc(Nc3ccnc4cc(Cl)ccc34)ccc2F)nc(N2CCN(c3ccccc3)CC2)n1', 73.7),
  ('O=c1ccn2nc3ccccc3c2[nH]1', 130),
  ('O=C(N=c1oc2ccccc2cc1-c1cc2ccccc2[nH]1)c1ccc(Cl)cc1', 98.7),
  ('c1ccc2cc3nc4cc5ccccc5cc4nc3cc2c1', 98.2),
  ('COc1cccc(C(=O)NCCCNc2cc(-c3cn(-c4ccccc4)nc3-c3cccc(OC)c3)ccn2)c1', 30),
  ('COc1ccc2c(c1)C(=O)/C(=C/c1cccc(OCC(=O)Nc3nc(C)c(C)s3)c1)O2', 37),
  ('COc1cc(C(=O)/C=C/c2c(-c3ccc(F)cc3)nc3sc(C)cn23)cc(OC)c1OC', 21.4),
  ('FC(F)(F)c1cc(Nc2ccc3cc(OCCCN4CCOCC4)ccc3n2)ccc1Cl', 49.2);
